Source: patent US6521641B1

assay: Toxicokinetics of oral AGN 194310 in rats (drug in blood by GC/MS); format: in vivo, rat; settings: both sexes, Sprague-Dawley, rat, whole blood, po, 0.005 mg/kg/day, 0.001% AGN 194310 (0.005 mg/kg/day), Day 22, mean ± SD, N = 8
measured-metric: Cmax (ng/mL)
The answer is to be given in ng/mL; state only the numeric part.

Cmax in this record for CCc1ccc(C2=CC(C)(C)Sc3ccc(C#Cc4ccc(C(=O)O)cc4)cc32)cc1 : 1.97

###

assay: Toxicokinetics of oral AGN 194310 in rats (drug in blood by GC/MS); type: in vivo, rat; details: both sexes, Sprague-Dawley, rat, whole blood, po, 0.005 mg/kg/day, Day 22, mean ± SEM, N = 8, read-out: AUC24 hr
measured-metric: AUC(0-t) (ng·h/mL)
The answer is to be given in ng·h/mL; state only the numeric part.

AUC(0-t) in this record for CCc1ccc(C2=CC(C)(C)Sc3ccc(C#Cc4ccc(C(=O)O)cc4)cc32)cc1 : 20.8

###

test: Toxicokinetics of oral AGN 194310 in rats (drug in blood by GC/MS); type: in vivo, rat; conditions: both sexes, Sprague-Dawley, rat, whole blood, po, 0.015 mg/kg/day, Day 7, mean ± SEM, N = 8, read-out: AUC24 hr
measured-metric: AUC(0-t) (ng·h/mL)
The answer is to be given in ng·h/mL; state only the numeric part.

AUC(0-t) in this record for CCc1ccc(C2=CC(C)(C)Sc3ccc(C#Cc4ccc(C(=O)O)cc4)cc32)cc1 : 57.6

###

assay: Toxicokinetics of oral AGN 194310 in rats (drug in blood by GC/MS); assay type: in vivo, rat; conditions: both sexes, Sprague-Dawley, rat, whole blood, 0.015 mg/kg/day, Day 22
measured-metric: Tmax

Tmax in this record for CCc1ccc(C2=CC(C)(C)Sc3ccc(C#Cc4ccc(C(=O)O)cc4)cc32)cc1 [AGN 194310] : 2 h

###

experiment: Toxicokinetics of oral AGN 194310 in rats (drug in blood by GC/MS); assay type: in vivo, rat; details: both sexes, Sprague-Dawley, rat, whole blood, po, 0.15 mg/kg/day, Day 22, mean ± SEM, N = 8, read-out: AUC24 hr
measured-metric: AUC(0-t) (ng·h/mL)
The answer is to be given in ng·h/mL; state only the numeric part.

AUC(0-t) in this record for CCc1ccc(C2=CC(C)(C)Sc3ccc(C#Cc4ccc(C(=O)O)cc4)cc32)cc1 : 675

###

experiment: Toxicokinetics of oral AGN 194310 in rats (drug in blood by GC/MS); format: in vivo, rat; conditions: both sexes, Sprague-Dawley, rat, whole blood, po, 0.015 mg/kg/day, 0.003% AGN 194310 (0.015 mg/kg/day), Day 22, mean ± SD, N = 8
measured-metric: Cmax
Hi, when you answer, please include the unit after the number. Thanks!

Cmax in this record for CCc1ccc(C2=CC(C)(C)Sc3ccc(C#Cc4ccc(C(=O)O)cc4)cc32)cc1 [AGN 194310] : 5.32 ng/mL

###

assay: Toxicokinetics of oral AGN 194310 in rats (drug in blood by GC/MS); assay type: in vivo, rat; details: both sexes, Sprague-Dawley, rat, whole blood, 0.15 mg/kg/day, Day 22
measured-metric: Tmax (h)
The answer is to be given in h; state only the numeric part.

Tmax in this record for CCc1ccc(C2=CC(C)(C)Sc3ccc(C#Cc4ccc(C(=O)O)cc4)cc32)cc1 : 6
